These records show binding signal (normalized ELISA) for CXA TALE SNN (Xanthomonas (engineered)?).
Recorded endpoint: binding signal (normalized ELISA)

TTGACAATCCT (double strand) [CAA target]; 1.12
TTGACCATCCT (double strand) [CCA target]; 0.01
TTGACTATCCT (double strand) [CTA target]; 0.03
TTGACGATCCT (double strand) [CGA target]; 0.76

====

Below are binding signal (normalized ELISA) values recorded for CXA TALE SNG (Xanthomonas (engineered)?).
Recorded endpoint: binding signal (normalized ELISA)

TTGACGATCCT (double strand) [CGA target]; 0.11
TTGACTATCCT (double strand) [CTA target]; 0.99
TTGACCATCCT (double strand) [CCA target]; 0.15
TTGACAATCCT (double strand) [CAA target]; 0.63
